Target: T1, Human EphA2 (Ecto) (Human, UniProt P29317 24-537)
T1 construct: extracellular domain
T1 sequence (P29317 24-537): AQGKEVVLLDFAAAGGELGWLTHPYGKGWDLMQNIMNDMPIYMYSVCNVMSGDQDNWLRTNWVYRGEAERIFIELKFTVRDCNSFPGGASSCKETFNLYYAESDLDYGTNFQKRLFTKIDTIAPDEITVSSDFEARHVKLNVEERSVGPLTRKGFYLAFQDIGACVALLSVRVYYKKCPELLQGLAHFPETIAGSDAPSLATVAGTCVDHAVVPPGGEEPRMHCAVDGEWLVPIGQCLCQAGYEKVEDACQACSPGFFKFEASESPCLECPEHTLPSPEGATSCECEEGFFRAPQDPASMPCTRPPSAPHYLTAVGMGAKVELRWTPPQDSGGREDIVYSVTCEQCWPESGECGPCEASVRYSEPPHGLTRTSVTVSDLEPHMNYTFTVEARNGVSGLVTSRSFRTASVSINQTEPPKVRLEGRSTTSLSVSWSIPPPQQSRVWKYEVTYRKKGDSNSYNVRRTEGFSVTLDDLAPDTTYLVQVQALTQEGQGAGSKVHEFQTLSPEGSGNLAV
Test: FP competition, tracer Compound 18
Starred links: 1 amine or outer side, 2 acyl side, 3 side chain; linkers in the order of their positions; H or OH if unused. Positions of bridges follow the written chain, without caps; N, C: chain ends. Non-standard residues stand in square brackets, D forms with d. Primed or numbered codes have the meaning given here. No end group written: not given here. TBMB′ = 1,3,5-tris(bromomethyl)benzene, 1,3,5-tris(methylene)benzene core, three thioethers to Cys; Dip = N[C@H](C(=O)O)C(c1ccccc1)c1ccccc1; Ala(2-furyl) = N[C@@H](Cc1ccco1)C(=O)O; 1Nal = N[C@@H](Cc1cccc2ccccc12)C(=O)O; TBMB = c1c(C[*:1])cc(C[*:3])cc1C[*:2]; Tle = CC(C)(C)[C@H](N)C(=O)O; azaGly = NNC(=O)O; βAla = NCCC(=O)O; Sar = CNCC(=O)O
endpoint label: Ki (nM)
Answers are plain numbers, in nM.

Ac-[Sar][Sar]H[dD]VPCPW[azaGly]PFWCPVNRPGC (linker 7-14-21 via TBMB) [Bicycle Compound 267] : 0.66

Lab note: each binder below needs its Ki filled in.
1. [βAla][Sar][Sar][Sar][Sar][Sar][Sar][Sar][Sar][Sar][Sar]H[dD]VPCPWGPFWCPVNRPGC (linker 16-23-30 via TBMB) [Bicycle Compound 226]
2. ADVHCP[Dip]GPFWCPVNRPGCA (linker 5-12-19 via TBMB) [Bicycle Compound 149]
3. Ac-[Sar][Sar]A[dH]D[Tle]PCPWGPFWCPVNRPGC (linker 8-15-22 via TBMB) [Bicycle Compound 204]
4. Ac-[Sar][Sar]ADVTCPWGPFWCPVNRPGC (linker 7-14-21 via TBMB′) [Bicycle Compound 157]

1: 0.84; 2: 52.8; 3: 2.15; 4: 0.91

Give Ki for each of the items listed below.
1. Ac-[Sar][Sar]A[dD][dD]TCPWGPFWCPVNRPGC (linker 7-14-21 via TBMB′) [Bicycle Compound 159]
2. Ac-[Sar][Sar]AD[Tle]TCPWGPFWCPVNRPGC (linker 7-14-21 via TBMB′) [Bicycle Compound 164]
3. Ac-[Sar][Sar]A[dD]DVTCP[1Nal]GPFWCPVNRPGC (linker 8-15-22 via TBMB) [Bicycle Compound 282]
4. Ac-[Sar][Sar]H[dD]VPCPWGPFWCPVNRPGC (linker 7-14-21 via TBMB) [Bicycle Compound 225]
5. [Sar][Sar]A[Ala(2-furyl)]DVPCPWGPFWCPVNRPGC (linker 8-15-22 via TBMB) [Bicycle Compound 203]
6. [Sar][Sar]AHDVACPWGPFWCPVNRPGC (linker 8-15-22 via TBMB) [Bicycle Compound 218]

1. 2.85
2. 2.25
3. 0.87
4. 1
5. 0.49
6. 1.27

// provenance: patent US11814447B2
